Reference source for all entries: patent US11174250B2

assayed target: WDR5 protein (Homo sapiens (Human), UniProt P61964)
method summary: Surface Plasmon Resonance (SPR) assay
Format: binding
experimental parameters: SPR, Table 1; read-out: WDR5 binding affinity (KD)
endpoint: Kd (nM)

Q: Specify measured Kd for COC(=O)c1ccc(F)c(-c2ccc(N3CCN(C)CC3)c(NC(=O)c3c[nH]c(=O)cc3C(F)(F)F)c2)c1 .
A: 26

Q: Specify measured Kd for CN1CCN(c2ccc(-c3cc(OC(F)(F)F)ccc3F)cc2NC(=O)c2c[nH]c(=O)cc2C(F)(F)F)CC1 .
A: 29

Q: Specify measured Kd for C[C@H]1CN(c2ccc(-c3ncccc3F)cc2NC(=O)c2c[nH]c(=O)cc2C(F)(F)F)CCN1C .
A: 2.6
